# system: SDCBP_1, O00560
# Sequence (O00560 111-198): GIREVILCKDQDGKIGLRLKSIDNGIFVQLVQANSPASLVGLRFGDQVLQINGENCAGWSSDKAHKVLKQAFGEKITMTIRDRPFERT
# run description: holdup assay
# Parameters: key: below the threshold = too weak to quantify, mostly under pKd 3.1 to 4
# assay conditions: plain residues with an end cap or a label only (N-terminal biotin on a linker: ttds)
recorded endpoint: pKd

{"binder": "SRSRRRETAL [HPV33-E6, P06427]", "pKd": "below the threshold"}
{"binder": "PSRDRKETSI [RALBP1, Q15311]", "pKd": "below the threshold"}
{"binder": "SSIDLWETAL [SLC15A5, A6NIM6]", "pKd": "below the threshold"}
{"binder": "SGGKRKETLV [NET1, Q7Z628]", "pKd": "below the threshold"}
{"binder": "SHSSKGETAV [FZD7, O75084]", "pKd": "below the threshold"}

pKd recorded for this binder, KLVIKTETTV [RASSF6, Q6ZTQ3] , is below the threshold

Given item PPRQRSETQV [HPV82-E6, Q9IR59] , the value recorded as its pKd is below the threshold
